Give measured pIC50 for each item. Keep answers brief.
- tgt: human Nav1.7 (Homo sapiens (Human))
- experiment: Human Nav1.7 inhibitory activity evaluation (automated patch clamp QPatch16X, HEK293A cells stably expressing human Nav1.7 and human Navβ1)
- Format: cell-based
- run parameters: human Nav1.7, automated patch clamp
pIC50: −log10 of the molar value.

Query: pIC50; subject: Cn1cc(-c2ccc3c(c2)C[C@@H](NC(=O)c2cc4n(n2)CC(CCOC2CCC2)O4)CO3)cn1 (stereo partly shown)
> 6.00

Given O=C(N[C@H]1COc2ccc(C(F)(F)F)cc2C1O)c1cc2n(n1)CCC(COCC(F)(F)F)O2 (stereo partly shown) , state its recorded pIC50.
> 5.00

pIC50 for O=C(N[C@H]1COc2ccc(COCC(F)(F)F)cc2C1)c1cc2n(n1)CCC(C1CCOCC1)O2 (single isomer, unassigned) [615 (isomer A)] ?
> 6.00

What does the data say about its pIC50? Entry: O=C(N[C@H]1COc2ccc(C(F)(F)F)cc2C1)c1nc2n(c1-c1cccnc1OCC(F)(F)F)CCOC2
> 5.00

Query (compound): O=C(N[C@H]1COc2ccc(Cl)cc2C1)c1cc2n(n1)CCN(CCC(F)(F)F)C2 ; field requested: pIC50
> 6.00

Recorded pIC50 for CCC1(O)CCn2nc(C(=O)N[C@H]3COc4ccc(C(F)(F)F)cc4C3F)cc2OC1 (stereo partly shown) , please?
> 5.00

For the compound N#Cc1ccc2c(c1)C[C@@H](NC(=O)c1cc3n(n1)CC(CCCOC(F)(F)F)O3)CO2 (single isomer, unassigned) [247 (isomer A)] , what pIC50 is on record?
> 6.00

* * *

- tgt: human Nav1.5 (Homo sapiens (Human))
- Sequence (Q14524 whole entry): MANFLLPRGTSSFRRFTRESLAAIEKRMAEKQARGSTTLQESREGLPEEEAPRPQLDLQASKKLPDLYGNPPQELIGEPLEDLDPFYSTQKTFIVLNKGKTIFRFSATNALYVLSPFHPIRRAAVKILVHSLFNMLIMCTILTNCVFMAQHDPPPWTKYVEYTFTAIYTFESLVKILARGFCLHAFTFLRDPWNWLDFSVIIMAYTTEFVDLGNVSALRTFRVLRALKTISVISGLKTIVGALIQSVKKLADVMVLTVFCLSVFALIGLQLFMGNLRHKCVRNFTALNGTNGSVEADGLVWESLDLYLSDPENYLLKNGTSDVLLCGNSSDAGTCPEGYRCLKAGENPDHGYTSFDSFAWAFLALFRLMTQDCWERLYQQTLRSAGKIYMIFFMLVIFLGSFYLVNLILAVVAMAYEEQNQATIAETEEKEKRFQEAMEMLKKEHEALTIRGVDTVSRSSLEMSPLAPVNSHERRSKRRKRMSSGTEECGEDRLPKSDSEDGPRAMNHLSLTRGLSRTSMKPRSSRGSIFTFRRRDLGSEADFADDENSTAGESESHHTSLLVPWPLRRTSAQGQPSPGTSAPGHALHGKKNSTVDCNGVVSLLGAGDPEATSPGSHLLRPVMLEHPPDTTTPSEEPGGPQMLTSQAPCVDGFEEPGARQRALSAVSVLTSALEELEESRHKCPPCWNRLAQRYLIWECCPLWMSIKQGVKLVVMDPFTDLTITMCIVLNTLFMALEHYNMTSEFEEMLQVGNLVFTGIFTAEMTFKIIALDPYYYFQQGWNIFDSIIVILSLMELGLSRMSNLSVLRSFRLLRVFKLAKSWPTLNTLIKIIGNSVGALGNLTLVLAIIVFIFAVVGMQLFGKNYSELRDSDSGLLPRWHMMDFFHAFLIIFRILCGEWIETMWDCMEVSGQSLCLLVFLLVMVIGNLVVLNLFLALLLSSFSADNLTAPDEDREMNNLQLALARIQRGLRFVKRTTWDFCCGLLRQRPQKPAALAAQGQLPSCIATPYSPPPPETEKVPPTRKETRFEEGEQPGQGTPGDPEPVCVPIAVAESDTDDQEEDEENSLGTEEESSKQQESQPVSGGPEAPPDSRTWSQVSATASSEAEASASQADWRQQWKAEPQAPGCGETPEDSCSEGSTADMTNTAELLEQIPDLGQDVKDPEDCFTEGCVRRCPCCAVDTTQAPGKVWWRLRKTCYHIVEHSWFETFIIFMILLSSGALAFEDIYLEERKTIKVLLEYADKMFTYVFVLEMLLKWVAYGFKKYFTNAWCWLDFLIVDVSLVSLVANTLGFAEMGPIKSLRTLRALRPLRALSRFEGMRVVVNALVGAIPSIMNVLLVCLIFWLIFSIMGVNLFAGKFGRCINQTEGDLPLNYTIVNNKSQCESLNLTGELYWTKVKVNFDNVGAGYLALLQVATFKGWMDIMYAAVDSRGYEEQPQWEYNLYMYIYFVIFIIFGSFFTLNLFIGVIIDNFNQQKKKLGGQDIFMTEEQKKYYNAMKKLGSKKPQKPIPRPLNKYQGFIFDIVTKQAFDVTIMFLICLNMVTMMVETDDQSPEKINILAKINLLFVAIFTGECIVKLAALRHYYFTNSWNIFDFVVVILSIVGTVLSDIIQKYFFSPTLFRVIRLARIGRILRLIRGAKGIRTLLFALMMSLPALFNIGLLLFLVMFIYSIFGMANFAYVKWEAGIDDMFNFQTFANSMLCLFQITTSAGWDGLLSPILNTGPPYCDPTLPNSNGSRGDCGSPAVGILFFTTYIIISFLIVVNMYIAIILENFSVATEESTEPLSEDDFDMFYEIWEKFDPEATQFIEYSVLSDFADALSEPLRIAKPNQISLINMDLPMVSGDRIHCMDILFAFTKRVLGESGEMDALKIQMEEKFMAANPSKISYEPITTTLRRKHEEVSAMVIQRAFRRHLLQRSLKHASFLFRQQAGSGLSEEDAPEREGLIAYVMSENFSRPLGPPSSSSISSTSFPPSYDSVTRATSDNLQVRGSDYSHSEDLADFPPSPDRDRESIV
- experiment: Human Nav1.5 inhibitory activity evaluation (automated patch clamp QPatch16X, HEK293 cells stably expressing human Nav1.5)
- Assay type: cell-based
- run parameters: human Nav1.5, automated patch clamp
recorded endpoint: IC50

What does the data say about its IC50? Entry: O=C(N[C@H]1COc2ccc(COCC(F)(F)F)cc2C1)c1cc2n(n1)CC(CC1CCOCC1)O2 (single isomer, unassigned) [622 (isomer A)]
≥ 3 µM

Param item = N#Cc1ccc2c(c1)C[C@@H](NC(=O)c1cc3n(n1)CCN(CCC1CCC1)C3)CO2 [Example 496] ; retrieve measured IC50.
1 to 3 µM

Which measured IC50 value corresponds to N#Cc1ccc2c(c1)C[C@@H](NC(=O)c1cc3n(n1)CC(CCCOCC(F)F)O3)CO2 (single isomer, unassigned) [604 (isomer A)] ?
1 to 3 µM

Give the measured IC50 of O=C(N[C@H]1COc2ccc(COCC(F)(F)F)cc2C1)c1cc2n(n1)CC(COC(F)(F)F)O2 (single isomer, unassigned) [196 (isomer A)] .
1 to 3 µM

Need IC50 of O=C(N[C@H]1COc2ccc(-c3ccccn3)cc2C1)c1cc2n(n1)CC(CCOCC(F)(F)F)O2 (single isomer, unassigned) [207 (isomer B)] , thanks.
1 to 3 µM

What value of IC50 has been recorded for this entry: COc1ccc(CCC2CCc3nc(C(=O)N4CCC(c5ccccc5)C4)cn3C2)cn1 (stereo not shown) [Example 317]
≥ 3 µM

Sample O=C(N[C@H]1COc2ccc(C(F)(F)F)cc2C1O)c1cc2n(n1)CC(CCCOCC(F)(F)F)O2 (single isomer, unassigned) [616 (isomer A)] — what was its IC50?
1 to 3 µM

Can you share its IC50? I mean this compound: O=C(N[C@H]1COc2ccc(COCC3CC3)cc2C1)c1cc2n(n1)CCC(C(F)(F)F)O2 (stereo partly shown) [Example 391]
≥ 3 µM

Return reported IC50; argument: Cn1ccc(-c2ccc3c(c2)C[C@@H](NC(=O)c2cc4n(n2)CCC(COCC2CC2)O4)CO3)n1 (stereo partly shown) [Example 426]
≥ 3 µM

Tell me the measured IC50 of O=C(N[C@H]1COc2ccc(CCOC(F)(F)F)cc2C1)c1cc2n(n1)CC(COC(F)F)O2 (stereo partly shown) [Example 462] , please.
≥ 3 µM

* * *

- tgt: human Nav1.7 (Homo sapiens (Human), UniProt Q15858)
- Sequence (Q15858 whole entry): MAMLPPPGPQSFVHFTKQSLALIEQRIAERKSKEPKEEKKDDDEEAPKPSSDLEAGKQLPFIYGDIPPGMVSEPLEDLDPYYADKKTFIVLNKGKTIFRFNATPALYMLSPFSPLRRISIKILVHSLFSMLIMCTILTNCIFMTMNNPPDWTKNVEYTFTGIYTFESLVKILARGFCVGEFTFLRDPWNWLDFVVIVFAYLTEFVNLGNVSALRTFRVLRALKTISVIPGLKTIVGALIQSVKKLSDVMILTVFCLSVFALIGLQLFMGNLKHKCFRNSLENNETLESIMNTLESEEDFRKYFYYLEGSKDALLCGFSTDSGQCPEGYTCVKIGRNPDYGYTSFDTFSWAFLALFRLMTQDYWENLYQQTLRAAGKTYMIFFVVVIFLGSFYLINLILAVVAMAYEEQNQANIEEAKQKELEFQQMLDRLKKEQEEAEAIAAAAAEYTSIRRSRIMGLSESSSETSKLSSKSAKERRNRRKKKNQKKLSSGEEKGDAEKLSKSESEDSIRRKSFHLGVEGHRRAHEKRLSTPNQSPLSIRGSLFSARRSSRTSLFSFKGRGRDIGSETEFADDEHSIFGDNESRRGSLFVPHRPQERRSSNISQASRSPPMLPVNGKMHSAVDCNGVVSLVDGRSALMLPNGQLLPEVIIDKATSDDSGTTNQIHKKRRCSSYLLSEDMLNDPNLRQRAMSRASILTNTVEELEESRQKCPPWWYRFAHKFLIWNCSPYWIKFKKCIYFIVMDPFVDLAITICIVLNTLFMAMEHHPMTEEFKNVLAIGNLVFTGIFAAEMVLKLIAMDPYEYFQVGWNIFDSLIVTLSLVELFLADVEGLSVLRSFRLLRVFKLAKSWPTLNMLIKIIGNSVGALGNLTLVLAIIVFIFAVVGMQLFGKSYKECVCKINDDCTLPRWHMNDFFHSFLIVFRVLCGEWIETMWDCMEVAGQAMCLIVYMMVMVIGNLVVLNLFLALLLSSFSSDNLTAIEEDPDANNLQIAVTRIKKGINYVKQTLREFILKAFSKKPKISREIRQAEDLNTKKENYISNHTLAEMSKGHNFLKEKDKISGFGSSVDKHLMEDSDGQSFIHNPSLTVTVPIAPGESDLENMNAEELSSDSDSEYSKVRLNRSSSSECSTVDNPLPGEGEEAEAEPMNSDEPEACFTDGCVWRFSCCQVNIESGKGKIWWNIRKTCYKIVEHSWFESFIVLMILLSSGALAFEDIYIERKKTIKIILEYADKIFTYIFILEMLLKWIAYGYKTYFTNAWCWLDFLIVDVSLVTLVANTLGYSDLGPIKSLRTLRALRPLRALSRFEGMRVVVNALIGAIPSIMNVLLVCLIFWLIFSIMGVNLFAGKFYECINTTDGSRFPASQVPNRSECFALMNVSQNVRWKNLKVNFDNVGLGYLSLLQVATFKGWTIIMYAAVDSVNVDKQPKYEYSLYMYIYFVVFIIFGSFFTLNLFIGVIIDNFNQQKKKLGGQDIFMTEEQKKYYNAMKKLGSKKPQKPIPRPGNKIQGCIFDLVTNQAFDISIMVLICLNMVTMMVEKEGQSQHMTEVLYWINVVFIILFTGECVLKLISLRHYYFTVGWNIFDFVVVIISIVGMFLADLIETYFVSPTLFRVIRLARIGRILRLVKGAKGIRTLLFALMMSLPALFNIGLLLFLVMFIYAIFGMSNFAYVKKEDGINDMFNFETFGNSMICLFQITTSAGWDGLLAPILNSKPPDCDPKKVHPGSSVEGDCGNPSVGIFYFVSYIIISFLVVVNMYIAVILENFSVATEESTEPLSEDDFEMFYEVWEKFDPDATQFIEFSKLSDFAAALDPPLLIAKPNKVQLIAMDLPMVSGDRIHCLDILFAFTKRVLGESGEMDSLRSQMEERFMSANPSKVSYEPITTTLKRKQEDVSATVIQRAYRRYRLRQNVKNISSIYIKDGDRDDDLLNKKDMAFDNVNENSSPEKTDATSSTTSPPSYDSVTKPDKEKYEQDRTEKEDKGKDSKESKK
- Sequence (Q07699 19-218 partner): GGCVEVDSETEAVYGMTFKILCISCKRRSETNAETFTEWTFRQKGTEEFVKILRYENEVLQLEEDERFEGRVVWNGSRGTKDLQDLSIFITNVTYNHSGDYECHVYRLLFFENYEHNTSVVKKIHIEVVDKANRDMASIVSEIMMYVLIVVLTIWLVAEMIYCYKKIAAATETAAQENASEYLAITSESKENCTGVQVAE
- experiment: Human Nav1.7 inhibitory activity evaluation (automated patch clamp QPatch16X, HEK293A cells stably expressing human Nav1.7 and human Navβ1)
- Assay type: cell-based
- run parameters: human Nav1.7, automated patch clamp
pIC50: −log10 of the molar value.
recorded endpoint: pIC50

Notebook entry, human Nav1.7 (Homo sapiens (Human), UniProt Q15858) assay: pIC50 of Cn1ccc(-c2ccc3c(c2)C[C@@H](NC(=O)c2cc4n(n2)CC(CCOC(F)(F)F)O4)CO3)n1 (some centres unmarked) [Example 212] = ?
> 6.00

Checklist item: pIC50 tested on human Nav1.7 (Homo sapiens (Human), UniProt Q15858), entry O=C(N[C@H]1COc2ccc(C(F)(F)F)cc2C1O)c1cc2n(n1)CC(CCCOCC(F)F)O2 (some centres unmarked) [Example 607] , value?
> 6.00

Kindly state the measured pIC50 obtained for N#Cc1ccc2c(c1)C[C@@H](NC(=O)c1nc3n(c1-c1cccc(Cl)n1)CCOC3)CO2 with human Nav1.7 (Homo sapiens (Human), UniProt Q15858).
> 6.00

Form: Entry = O=C(NC1COc2ccc(F)c(F)c2C1)c1cc2n(n1)CC(CCCOCC(F)F)O2 (centres unmarked) | System = human Nav1.7 (Homo sapiens (Human), UniProt Q15858) | pIC50 = ____
> 6.00

# query: pIC50 | item Cc1cnc(-c2ccc3c(c2)C[C@@H](NC(=O)c2cc4n(n2)CC(COCC(F)(F)F)O4)CO3)cn1 (single isomer, unassigned) [194 (isomer B)] | system: human Nav1.7 (Homo sapiens (Human), UniProt Q15858)
> 6.00

// fetch human Nav1.7 (Homo sapiens (Human), UniProt Q15858) pIC50 for COc1c(C(F)(F)F)ccc2c1C[C@@H](NC(=O)c1cc3n(n1)CCC(C(F)F)O3)CO2 (some centres unmarked)
> 5.00

Given the entry N#Cc1ccc2c(c1)C[C@@H](NC(=O)c1cc3n(n1)CCC(C(O)C(F)(F)F)O3)CO2 (some centres unmarked) , what pIC50 was observed with human Nav1.7 (Homo sapiens (Human), UniProt Q15858)?
> 5.00

Give the reported pIC50 for N#Cc1ccc2c(c1)C(O)C(NC(=O)c1cc3n(n1)CCC(c1ccccc1F)O3)CO2 (centres unmarked) (system: human Nav1.7 (Homo sapiens (Human), UniProt Q15858)).
> 5.00

What reported pIC50 corresponds to O=C(N[C@H]1COc2ccc(CC(F)F)cc2C1)c1cc2n(n1)CC(CC1CCOCC1)O2 (some centres unmarked) on human Nav1.7 (Homo sapiens (Human), UniProt Q15858)?
> 5.00

Query for human Nav1.7 (Homo sapiens (Human), UniProt Q15858): what pIC50 does the record show for O=C(N[C@H]1COc2ccccc2C1)c1cc2n(n1)CCC(c1ccccc1)N2 (some centres unmarked) ?
> 5.00

What is its pIC50 for human Nav1.7 (Homo sapiens (Human), UniProt Q15858)? Entry: O=C(NC1COc2ccc(F)c(F)c2C1)c1cc2n(n1)CCC(C(F)(F)F)O2 (centres unmarked)
> 5.00

Lab request: please report pIC50 under test system human Nav1.7 (Homo sapiens (Human), UniProt Q15858) for O=C(N[C@H]1COc2ccc(-c3cnccn3)cc2C1)c1cc2n(n1)CC(CCOC(F)F)O2 (single isomer, unassigned) [223 (isomer B)]
> 6.00

Recall the recorded pIC50 for O=C(N[C@H]1COc2ccc(-c3cncs3)cc2C1)c1cc2n(n1)CCC(COCC1CC1)O2 (some centres unmarked) with human Nav1.7 (Homo sapiens (Human), UniProt Q15858) and state it.
> 6.00

Give recorded pIC50 with human Nav1.7 (Homo sapiens (Human), UniProt Q15858) for the following compound: Cn1ccc(-c2ccc3c(c2)C[C@@H](NC(=O)c2cc4n(n2)CC(CCSCC(F)(F)F)O4)CO3)n1 (some centres unmarked)
> 6.00

Observed pIC50 on human Nav1.7 (Homo sapiens (Human), UniProt Q15858) for O=C(N[C@H]1COc2ccc(Cl)cc2C1)c1cc2n(n1)CC(CCNCC(F)(F)F)O2 (single isomer, unassigned) [226 (isomer A)] , please.
> 6.00

Hi! What's the reported pIC50 for O=C(N[C@H]1COc2ccc(-c3cnccn3)cc2C1)c1cc2n(n1)CC(CCOCC1(C(F)(F)F)CC1)O2 (some centres unmarked) on human Nav1.7 (Homo sapiens (Human), UniProt Q15858)?
> 6.00

Given the entry COC1c2cc(C(F)(F)F)ccc2OC[C@@H]1NC(=O)c1cc2n(n1)CC(COCC(F)(F)F)O2 (single isomer, unassigned; isomer b) [597(isomer B)] , what pIC50 was observed with human Nav1.7 (Homo sapiens (Human), UniProt Q15858)?
> 6.00

// fetch human Nav1.7 (Homo sapiens (Human), UniProt Q15858) pIC50 for O=C(N[C@H]1COc2ccc(C(F)(F)F)cc2C1O)c1cc2n(n1)CC(CCOCC1CC1)O2 (single isomer, unassigned) [636 (isomer A)]
> 6.00

Find pIC50 (human Nav1.7 (Homo sapiens (Human), UniProt Q15858)) for the entry O=C(N[C@H]1COc2ccccc2C1)c1cc2n(n1)CCC(c1ccccc1)O2 (some centres unmarked)
> 6.00

Lab note: need pIC50 with human Nav1.7 (Homo sapiens (Human), UniProt Q15858) for entry O=C(N[C@H]1COc2ccc(C(F)(F)F)cc2C1O)c1cc2n(n1)CC(CCCOCC(F)(F)F)O2 (single isomer, unassigned) [616 (isomer B)] , please look it up.
> 5.00

Quick check: pIC50 on human Nav1.7 (Homo sapiens (Human), UniProt Q15858), item CCC1CCn2nc(C(=O)N[C@H]3COc4ccc(C(F)(F)F)nc4C3)cc2O1 (some centres unmarked) ?
> 5.00

I'm curious: which pIC50 was measured for CN1Cc2nc(C(=O)NCCc3cccc(C(F)(F)F)c3)cn2CC1c1cccnc1C(F)(F)F (centres unmarked) tested on human Nav1.7 (Homo sapiens (Human), UniProt Q15858)?
> 5.00

Return pIC50 measured with human Nav1.7 (Homo sapiens (Human), UniProt Q15858) given this compound: COC(C)(C)CCc1ccc2c(c1)C[C@@H](NC(=O)c1cc3n(n1)CCC(C(F)(F)F)O3)CO2 (some centres unmarked)
> 6.00

Lab request: please report pIC50 under test system human Nav1.7 (Homo sapiens (Human), UniProt Q15858) for COc1cccc(-c2c(C(=O)N[C@H]3COc4ccc(C(F)(F)F)cc4C3)nn3c2COCC3)n1
> 6.00

# query: pIC50 | item CC1(COCC2CC2)Cn2nc(C(=O)N[C@H]3COc4ccc(CC(F)F)cc4C3)cc2O1 (some centres unmarked) | system: human Nav1.7 (Homo sapiens (Human), UniProt Q15858)
> 5.00

Quick check: pIC50 on human Nav1.7 (Homo sapiens (Human), UniProt Q15858), item O=C(N[C@H]1COc2ccc(C(F)(F)F)cc2C1F)c1cc2n(n1)CCN(CC1CCO1)C2 (some centres unmarked) ?
> 6.00

Missing value: pIC50, human Nav1.7 (Homo sapiens (Human), UniProt Q15858), entry CC1(C)CN(CC2Cn3nc(C(=O)N[C@H]4COc5ccc(C(F)(F)F)cc5C4)cc3O2)CCO1 (some centres unmarked) . Fill in?
> 6.00

Record O=C(N[C@H]1COc2ccc(CCOC(F)(F)F)cc2C1)c1cc2n(n1)CC(CCN1CC(F)(F)C1)O2 (some centres unmarked) [Example 239] : what is its pIC50 with human Nav1.7 (Homo sapiens (Human), UniProt Q15858)?
> 6.00

Query the reported pIC50 for human Nav1.7 (Homo sapiens (Human), UniProt Q15858); item: O=C(N[C@H]1COc2ccc(C(F)(F)F)cc2C1)c1cc2n(n1)CC(COCCOCC(F)(F)F)O2 (some centres unmarked)
> 6.00
